# procedureSummary: Half-tongue test: recognition threshold for velvety mouthcoating, trained sensory panel
# Format: in vivo
# experimentalParameters: Homo sapiens; half-tongue test, in water pH 4.5, twelve trained panelists wearing noseclips; geometric mean of last and second last concentration; read-out: Mouthfeel threshold
Checkbox rule: minimal effective concentration lower than 200 µM = TRUE; minimal effective concentration not lower than 200 µM = FALSE.

compound="COc1cc(C=O)ccc1O [Vanillin]" answerlabel=TRUE
compound="O=C(O)c1ccc(O)cc1 [p-hydroxybenzoic acid]" answerlabel=FALSE
compound="COc1cc(C(=O)O)ccc1O [Vanillic acid]" answerlabel=FALSE
compound="COc1ccccc1O [Guaiacol]" answerlabel=FALSE
compound="COc1cc(-c2cc(OC)c(O)c(-c3ccc(O)c(OC)c3)c2)ccc1O [Sample 1, triguaiacol]" answerlabel=TRUE
